- TARGET_OF_ASSAY: GST-Nv-NF-kB (Ser allele) (Nematostella vectensis, UniProt A7UNT2 2-411)
- Sequence: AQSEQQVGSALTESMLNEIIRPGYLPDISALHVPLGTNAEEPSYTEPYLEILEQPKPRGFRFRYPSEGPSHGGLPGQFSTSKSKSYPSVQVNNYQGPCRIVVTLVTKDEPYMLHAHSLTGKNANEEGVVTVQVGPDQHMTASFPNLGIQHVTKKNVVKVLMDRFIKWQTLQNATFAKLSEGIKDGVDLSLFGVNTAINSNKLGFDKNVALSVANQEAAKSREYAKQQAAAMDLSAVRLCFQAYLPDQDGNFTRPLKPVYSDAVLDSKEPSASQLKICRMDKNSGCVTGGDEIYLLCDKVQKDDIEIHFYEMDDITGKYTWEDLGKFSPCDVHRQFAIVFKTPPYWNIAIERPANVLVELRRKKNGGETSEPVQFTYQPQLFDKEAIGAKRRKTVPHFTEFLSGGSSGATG
- ASSAY_COMMENT: protein-binding microarray (PBM); PBM: ~300 nM protein, 6 mM HEPES pH 7.8, 80 mM KCl, 0.5 mM EDTA, 0.5 mM EGTA, 6% glycerol, 35 ng/ul poly-dIdC, 1% milk, 1 h, room temperature; high values mean tight binding
- ASSAY_SETUP: dsDNA, one strand shown
Each record is given label 1 if its reported binding signal is strictly below 8 z-score. Records at or above 8 z-score are given label 0.

Criterion: binding signal strictly below 8 z-score. Is it met by `CCGATTAACATCACAAAATCCCCTGATGTTAATCGGGTCTTGATTCGCTTGACGCTGCTG` ? label 0

Could you do the same for `CCGATTAACATCAGGGGAAAACCTGATGTTAATCGGGTCTTGATTCGCTTGACGCTGCTG` , please? label 0

Could you do the same for `CCGATTAACATCAGGGCTGCCCCTGATGTTAATCGGGTCTTGATTCGCTTGACGCTGCTG` , please? label 1

Could you do the same for `CCGATTAACATCAGGGGACTCACTGATGTTAATCGGGTCTTGATTCGCTTGACGCTGCTG` , please? label 1

Could you do the same for `CCGATTAACATCAAAAACTCCCCTGATGTTAATCGGGTCTTGATTCGCTTGACGCTGCTG` , please? label 0

Could you do the same for `CCGATTAACATCAGAATTCCCCATGATGTTAATCGGGTCTTGATTCGCTTGACGCTGCTG` , please? label 0

Could you do the same for `CCGATTAACATCAACATTTTCCCTGATGTTAATCGGGTCTTGATTCGCTTGACGCTGCTG` , please? label 0

Could you do the same for `CCGATTAACATCAAAGTATCCCCTGATGTTAATCGGGTCTTGATTCGCTTGACGCTGCTG` , please? label 1

Could you do the same for `CCGATTAACATCAAGGGAATTTCTGATGTTAATCGGGTCTTGATTCGCTTGACGCTGCTG` , please? label 0

###

- TARGET_OF_ASSAY: GST-Aq-NF-kB (Amphimedon queenslandica, UniProt A9Y5G7 2-389)
- Sequence: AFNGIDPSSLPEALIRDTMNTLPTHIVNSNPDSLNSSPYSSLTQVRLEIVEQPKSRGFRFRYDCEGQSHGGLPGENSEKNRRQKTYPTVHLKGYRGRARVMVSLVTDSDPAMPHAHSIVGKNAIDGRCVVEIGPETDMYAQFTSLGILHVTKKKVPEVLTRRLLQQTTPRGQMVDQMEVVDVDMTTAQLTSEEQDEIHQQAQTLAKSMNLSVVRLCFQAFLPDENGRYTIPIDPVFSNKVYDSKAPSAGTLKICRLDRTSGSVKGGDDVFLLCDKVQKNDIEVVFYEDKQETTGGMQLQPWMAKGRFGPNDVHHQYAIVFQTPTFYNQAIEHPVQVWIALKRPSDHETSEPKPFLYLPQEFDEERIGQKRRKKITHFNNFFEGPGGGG
- ASSAY_COMMENT: protein-binding microarray (PBM); PBM: ~300 nM protein, 6 mM HEPES pH 7.8, 80 mM KCl, 0.5 mM EDTA, 0.5 mM EGTA, 6% glycerol, 35 ng/ul poly-dIdC, 1% milk, 1 h, room temperature; Ap Aiptasia and Nv Nematostella (sea anemones) / Co Capsaspora / Aq Amphimedon (sponge) / Dm Drosophila / Hu human; RHD is the Rel homology domain; high values mean tight binding
- ASSAY_SETUP: dsDNA, one strand shown
Quick rule for you: binding signal at 4 z-score or higher means yes, lower means no.

Answer whether binding signal of `CCGATTAACATCAGGGATTCCCCTGATGTTAATCGGGTCTTGATTCGCTTGACGCTGCTG` is greater than or equal to 4 z-score. yes

Could you do the same for `CCGATTAACATCAGGAATTCTCCTGATGTTAATCGGGTCTTGATTCGCTTGACGCTGCTG` , please? no

Could you do the same for `CCGATTAACATCAGGGAAGTCCCTGATGTTAATCGGGTCTTGATTCGCTTGACGCTGCTG` , please? yes

Could you do the same for `CCGATTAACATCAGGACTGCCCCTGATGTTAATCGGGTCTTGATTCGCTTGACGCTGCTG` , please? yes

Could you do the same for `CCGATTAACATCATAAATTCCCATGATGTTAATCGGGTCTTGATTCGCTTGACGCTGCTG` , please? no

Could you do the same for `CCGATTAACATCAGTATTCCCCATGATGTTAATCGGGTCTTGATTCGCTTGACGCTGCTG` , please? yes

Could you do the same for `CCGATTAACATCAAGGAATTCCATGATGTTAATCGGGTCTTGATTCGCTTGACGCTGCTG` , please? no

Could you do the same for `CCGATTAACATCACGGAATCCCCTGATGTTAATCGGGTCTTGATTCGCTTGACGCTGCTG` , please? yes

Could you do the same for `CCGATTAACATCAAAAATACCCCTGATGTTAATCGGGTCTTGATTCGCTTGACGCTGCTG` , please? yes

Could you do the same for `CCGATTAACATCACCCAACCCCCTGATGTTAATCGGGTCTTGATTCGCTTGACGCTGCTG` , please? no

Could you do the same for `CCGATTAACATCAGACATTCCCCTGATGTTAATCGGGTCTTGATTCGCTTGACGCTGCTG` , please? yes

Could you do the same for `CCGATTAACATCAAAGGAATCCCTGATGTTAATCGGGTCTTGATTCGCTTGACGCTGCTG` , please? no

Could you do the same for `CCGATTAACATCACGGGCATTCCTGATGTTAATCGGGTCTTGATTCGCTTGACGCTGCTG` , please? no

Could you do the same for `CCGATTAACATCAGGGAGTTCACTGATGTTAATCGGGTCTTGATTCGCTTGACGCTGCTG` , please? yes

Could you do the same for `CCGATTAACATCAAAGTTTCCCATGATGTTAATCGGGTCTTGATTCGCTTGACGCTGCTG` , please? yes

Could you do the same for `CCGATTAACATCAGGGGAGGAAATGATGTTAATCGGGTCTTGATTCGCTTGACGCTGCTG` , please? no

Could you do the same for `CCGATTAACATCAGGGGACTTCATGATGTTAATCGGGTCTTGATTCGCTTGACGCTGCTG` , please? yes

Could you do the same for `CCGATTAACATCAGGGGGTTACATGATGTTAATCGGGTCTTGATTCGCTTGACGCTGCTG` , please? yes

Could you do the same for `CCGATTAACATCAGGGAAGCACCTGATGTTAATCGGGTCTTGATTCGCTTGACGCTGCTG` , please? yes

Could you do the same for `CCGATTAACATCACCAAAATTCCTGATGTTAATCGGGTCTTGATTCGCTTGACGCTGCTG` , please? no

Could you do the same for `CCGATTAACATCAAAATAACCCCTGATGTTAATCGGGTCTTGATTCGCTTGACGCTGCTG` , please? yes

Could you do the same for `CCGATTAACATCAGGAAAGCCCCTGATGTTAATCGGGTCTTGATTCGCTTGACGCTGCTG` , please? yes

Could you do the same for `CCGATTAACATCAGAATAACCCCTGATGTTAATCGGGTCTTGATTCGCTTGACGCTGCTG` , please? yes

Could you do the same for `CCGATTAACATCAAAATTGCCCCTGATGTTAATCGGGTCTTGATTCGCTTGACGCTGCTG` , please? yes

Could you do the same for `CCGATTAACATCAGGGGAAATGATGATGTTAATCGGGTCTTGATTCGCTTGACGCTGCTG` , please? yes

Could you do the same for `CCGATTAACATCACAAAAGCCCCTGATGTTAATCGGGTCTTGATTCGCTTGACGCTGCTG` , please? yes

Could you do the same for `CCGATTAACATCAGGGACTTACCTGATGTTAATCGGGTCTTGATTCGCTTGACGCTGCTG` , please? yes

Could you do the same for `CCGATTAACATCAAAATTTCCCATGATGTTAATCGGGTCTTGATTCGCTTGACGCTGCTG` , please? yes

Could you do the same for `CCGATTAACATCACTGAAATCCCTGATGTTAATCGGGTCTTGATTCGCTTGACGCTGCTG` , please? no

Could you do the same for `CCGATTAACATCAATGGGATTTCTGATGTTAATCGGGTCTTGATTCGCTTGACGCTGCTG` , please? no

Could you do the same for `CCGATTAACATCAGGGACTCCCATGATGTTAATCGGGTCTTGATTCGCTTGACGCTGCTG` , please? yes

Could you do the same for `CCGATTAACATCAAGATTTTCCCTGATGTTAATCGGGTCTTGATTCGCTTGACGCTGCTG` , please? yes

Could you do the same for `CCGATTAACATCAGAATTTTCCCTGATGTTAATCGGGTCTTGATTCGCTTGACGCTGCTG` , please? yes

Could you do the same for `CCGATTAACATCATTTCCCTTGATGATGTTAATCGGGTCTTGATTCGCTTGACGCTGCTG` , please? no

Could you do the same for `CCGATTAACATCAGGGAACTACCTGATGTTAATCGGGTCTTGATTCGCTTGACGCTGCTG` , please? yes

Could you do the same for `CCGATTAACATCAATTCCCATGATGATGTTAATCGGGTCTTGATTCGCTTGACGCTGCTG` , please? no
